pKi: −log10 of the molar value.
// Sodium-dependent noradrenaline transporter (Homo sapiens, UniProt P23975) pKi records
RESULT_TYPE: pKi

INSERT INTO measurements (molecule, observed_measurement) VALUES
  ('Cc1ccc([C@H]2CC3CCC([C@H]2c2ccc(F)cc2)N3C)cc1 (stereo partly specified)', 7.21),
  ('CN1C2CCC1[C@@H](c1ccccc1)[C@@H](c1ccccc1)C2 (stereo partly specified)', 6.26),
  ('COc1ccc([C@@H]2C3CCC(C[C@H]2c2ccc(C)cc2)N3C)cc1OC (stereo partly specified)', 4.34),
  ('Cc1ccc([C@@H]2C3CCC(C[C@@H]2c2ccccc2)N3C)cc1 (stereo partly specified)', 5.43),
  ('CN1C2CCC1[C@H](c1ccccc1)[C@H](c1ccccc1)C2 (stereo partly specified)', 6.20),
  ('Cc1ccc([C@H]2CC3CCC([C@H]2c2ccccc2)N3C)cc1 (stereo partly specified)', 6.55),
  ('Cc1ccc([C@H]2CC3CCC([C@H]2c2ccc(C)cc2)N3C)cc1 (stereo partly specified)', 6.41),
  ('COc1ccc([C@@H]2C3CCC(C[C@@H]2c2ccc(C)cc2)N3C)cc1OC (stereo partly specified)', 5.22),
  ('COc1ccc([C@@H]2C3CCC(C[C@@H]2c2ccc(C)cc2)N3C)cc1 (stereo partly specified)', 6.72),
  ('Cc1ccc([C@@H]2CC3CCC([C@@H]2c2ccc(C)cc2)N3C)cc1 (stereo partly specified)', 5.11),
  ('Cc1ccc([C@H]2C3CCC(C[C@H]2c2ccccc2)N3C)cc1 (stereo partly specified)', 5.55);

====

// Sodium-dependent serotonin transporter (Homo sapiens, UniProt P31645) pIC50 records
pIC50: −log10 of the molar value.
RESULT_TYPE: pIC50

INSERT INTO measurements (compound, result_type, observed_measurement) VALUES
  ('Cc1ccc([C@@H]2C3CCC(C[C@@H]2c2ccccc2)N3C)cc1 (stereo partly specified)', 'pIC50', 4.35),
  ('COc1ccc([C@@H]2C3CCC(C[C@@H]2c2ccc(C)cc2)N3C)cc1 (stereo partly specified)', 'pIC50', 5.78),
  ('Cc1ccc([C@H]2C3CCC(C[C@H]2c2ccccc2)N3C)cc1 (stereo partly specified)', 'pIC50', 4.96),
  ('Cc1ccc([C@H]2CC3CCC([C@H]2c2ccc(C)cc2)N3C)cc1 (stereo partly specified)', 'pIC50', 6.00),
  ('COc1ccc([C@@H]2C3CCC(C[C@@H]2c2ccc(C)cc2)N3C)cc1OC (stereo partly specified)', 'pIC50', 4.86),
  ('Cc1ccc([C@H]2CC3CCC([C@H]2c2ccccc2)N3C)cc1 (stereo partly specified)', 'pIC50', 5.96);
